Molecular target: TNKS2 (Homo sapiens (Human), UniProt Q9H2K2)
Sequence (Q9H2K2 whole entry): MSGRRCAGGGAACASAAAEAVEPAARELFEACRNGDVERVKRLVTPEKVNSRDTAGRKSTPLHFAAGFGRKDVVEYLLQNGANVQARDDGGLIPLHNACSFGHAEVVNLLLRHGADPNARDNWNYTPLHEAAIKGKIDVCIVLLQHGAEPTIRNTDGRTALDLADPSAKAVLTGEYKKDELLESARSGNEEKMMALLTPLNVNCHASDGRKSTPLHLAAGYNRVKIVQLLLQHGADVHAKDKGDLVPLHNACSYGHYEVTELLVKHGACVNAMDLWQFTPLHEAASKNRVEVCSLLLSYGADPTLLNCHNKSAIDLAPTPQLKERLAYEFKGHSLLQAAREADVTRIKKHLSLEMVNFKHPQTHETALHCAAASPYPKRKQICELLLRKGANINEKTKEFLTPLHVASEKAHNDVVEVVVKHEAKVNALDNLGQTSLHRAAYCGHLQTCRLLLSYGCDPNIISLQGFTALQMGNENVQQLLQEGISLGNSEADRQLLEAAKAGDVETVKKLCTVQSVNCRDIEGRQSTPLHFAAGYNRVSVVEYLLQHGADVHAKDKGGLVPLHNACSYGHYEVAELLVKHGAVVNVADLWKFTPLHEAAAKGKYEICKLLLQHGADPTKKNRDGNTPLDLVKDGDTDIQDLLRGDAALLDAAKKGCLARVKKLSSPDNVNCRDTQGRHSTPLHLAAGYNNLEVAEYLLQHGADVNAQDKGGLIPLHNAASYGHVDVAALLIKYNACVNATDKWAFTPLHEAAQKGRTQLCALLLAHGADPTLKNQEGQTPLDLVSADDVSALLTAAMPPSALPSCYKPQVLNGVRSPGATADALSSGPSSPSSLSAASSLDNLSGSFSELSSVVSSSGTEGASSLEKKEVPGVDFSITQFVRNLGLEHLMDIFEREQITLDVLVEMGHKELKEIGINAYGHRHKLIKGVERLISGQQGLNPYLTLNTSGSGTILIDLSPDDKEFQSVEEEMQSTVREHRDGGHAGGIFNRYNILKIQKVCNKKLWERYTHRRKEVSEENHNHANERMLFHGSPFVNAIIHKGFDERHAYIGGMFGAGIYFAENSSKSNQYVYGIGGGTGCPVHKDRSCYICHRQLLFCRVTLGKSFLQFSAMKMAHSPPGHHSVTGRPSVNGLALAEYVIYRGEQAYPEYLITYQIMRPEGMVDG
Test: Biochemical IC50 TNKS2
Conditions: read-out: Biochemical IC50 TNKS2
Field 'label' (enum: T / F). Set to T when IC50 is strictly under 3 nM; else F.

[ask] Below 3 nM on IC50? Entry CCOc1ccc(-c2nnc([C@H]3C[C@H](NC(=O)c4cc[n+]([O-])c5cccnc45)C3)n2-c2ccccc2F)nc1
[reply] T

[ask] Dear reviewer, please state whether CCOc1ccc(-c2nnc([C@H]3C[C@H](NC(=O)c4cccc5c(N(C)C)ccnc45)C3)n2-c2ccccc2F)nc1 has IC50 strictly beneath 3 nM.
[reply] T

[ask] Lab note: confirm whether the reported IC50 for this molecule is below 3 nM, equality not counting. molecule: CCOc1ccc(-c2nnc([C@H]3C[C@H](NC(=O)c4cccc5cc(O)cnc45)C3)n2-c2ccccc2F)nc1
[reply] T

[ask] Check if IC50 falls below 3 nM for CCOc1ccc(-c2nnc([C@H]3C[C@H](NC(=O)c4cccc5c4ncc[n+]5[O-])C3)n2-c2ccccc2F)nc1 .
[reply] T

[ask] Check if IC50 falls below 3 nM for CCOc1ccc(-c2nnc([C@H]3C[C@H](NC(=O)c4cccc5ncc(O)nc45)C3)n2-c2ccccc2F)nc1 .
[reply] F

[ask] Lab log: compare recorded IC50 with 3 nM; is it strictly lower for CCOc1ccc(-c2nnc([C@H]3C[C@H](NC(=O)c4ccc5cccc(O)c5n4)C3)n2-c2ccccc2F)nc1 ?
[reply] F

[ask] # strict comparison: is reported IC50 < 3 nM? input = CCOc1ccc(-c2nnc([C@H]3C[C@H](NC(=O)c4cccc(N)n4)C3)n2-c2ccccc2F)nc1
[reply] F
